Listing of entries alongside the reported % Retained 65° C..
target: T1, TRCW5 antigen (CD3δε-Fc-Avi) (biotinylated (site not stated)); experiment: binding after heat
T1 construct: also called recombinant CD3
T1 sequence (chain, as listed by the source mutant limits assumed): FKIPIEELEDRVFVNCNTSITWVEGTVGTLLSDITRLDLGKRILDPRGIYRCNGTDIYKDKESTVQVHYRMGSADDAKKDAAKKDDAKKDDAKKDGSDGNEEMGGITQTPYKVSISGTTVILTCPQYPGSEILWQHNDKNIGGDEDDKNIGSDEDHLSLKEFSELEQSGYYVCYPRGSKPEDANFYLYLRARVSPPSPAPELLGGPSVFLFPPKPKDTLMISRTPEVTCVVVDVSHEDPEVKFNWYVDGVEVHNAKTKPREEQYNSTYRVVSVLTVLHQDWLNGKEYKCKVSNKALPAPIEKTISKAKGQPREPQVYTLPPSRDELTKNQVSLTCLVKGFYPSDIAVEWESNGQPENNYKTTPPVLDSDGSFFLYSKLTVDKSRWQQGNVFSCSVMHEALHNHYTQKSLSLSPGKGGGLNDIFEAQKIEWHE
QUANTITY_MEASURED: % Retained 65° C.

INSERT INTO results (binder, reading) VALUES
  ('CD3B2051 N106G (scFv) scFv: QVQLVQSGAEVKKPGSSVKVSCKASGYTFTRSTMHWVKQAPGQGLEWMGYINPSSAYTNYNQKFQGRVTLTADKSTSTAYMELSSLRSEDTAVYYCASPQVHYDYGGFPYWGQGTLVTVSSGGSEGKSSGSGSESKSTGGSEIVLTQSPATLSASPGERVTLSCSASSSVSYMNWYQQKPGQAPRRLIYDSSKLASGVPARFSGSGSGRDYTLTISSLEPEDFAVYYCQQWSRNPPTFGGGTKVEIK', '1.5%'),
  ('CD3B2051 (scFv) scFv: QVQLVQSGAEVKKPGSSVKVSCKASGYTFTRSTMHWVKQAPGQGLEWMGYINPSSAYTNYNQKFQGRVTLTADKSTSTAYMELSSLRSEDTAVYYCASPQVHYDYNGFPYWGQGTLVTVSSGGSEGKSSGSGSESKSTGGSEIVLTQSPATLSASPGERVTLSCSASSSVSYMNWYQQKPGQAPRRLIYDSSKLASGVPARFSGSGSGRDYTLTISSLEPEDFAVYYCQQWSRNPPTFGGGTKVEIK', '10.9%'),
  ('CD3B2089 N106R (scFv) scFv: QVQLVQSGAEVKKPGSSVKVSCKASGYTFTRSTMHWVRQAPGQGLEWMGYINPSSAYTNYAQKFQGRVTLTADKSTSTAYMELSSLRSEDTAVYYCASPQVHYDYRGFPYWGQGTLVTVSSGGSEGKSSGSGSESKSTGGSEIVLTQSPATLSASPGERVTLSCSASSSVSYMNWYQQKPGQAPRRWIYDSSKLASGVPARFSGSGSGRDYTLTISSLEPEDFAVYYCQQWSRNPPTFGGGTKVEIK', '60.4%');

Values from patent US20250145711A1
